What M07e cell proliferation activity (%) at 37 nM was measured for each of the following?
Biological target: T1, IL-2Rβ/γ on M07e cells (human, UniProt P14784 27-551; P31785 23-369)
T1 sequence (looked up) 1: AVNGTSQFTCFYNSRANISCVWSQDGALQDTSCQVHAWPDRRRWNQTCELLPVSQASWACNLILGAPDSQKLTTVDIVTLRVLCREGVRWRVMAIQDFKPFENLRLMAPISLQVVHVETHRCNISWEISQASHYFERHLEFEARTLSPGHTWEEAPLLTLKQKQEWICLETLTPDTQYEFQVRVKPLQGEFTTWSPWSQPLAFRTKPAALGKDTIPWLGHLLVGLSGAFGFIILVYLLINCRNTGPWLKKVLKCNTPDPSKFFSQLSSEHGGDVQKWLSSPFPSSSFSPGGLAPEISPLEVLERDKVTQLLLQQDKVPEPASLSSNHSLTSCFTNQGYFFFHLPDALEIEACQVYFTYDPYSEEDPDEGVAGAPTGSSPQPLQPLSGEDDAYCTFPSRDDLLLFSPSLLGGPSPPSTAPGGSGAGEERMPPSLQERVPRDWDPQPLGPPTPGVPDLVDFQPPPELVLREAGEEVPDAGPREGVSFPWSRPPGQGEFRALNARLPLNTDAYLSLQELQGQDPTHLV
T1 sequence (looked up) 2: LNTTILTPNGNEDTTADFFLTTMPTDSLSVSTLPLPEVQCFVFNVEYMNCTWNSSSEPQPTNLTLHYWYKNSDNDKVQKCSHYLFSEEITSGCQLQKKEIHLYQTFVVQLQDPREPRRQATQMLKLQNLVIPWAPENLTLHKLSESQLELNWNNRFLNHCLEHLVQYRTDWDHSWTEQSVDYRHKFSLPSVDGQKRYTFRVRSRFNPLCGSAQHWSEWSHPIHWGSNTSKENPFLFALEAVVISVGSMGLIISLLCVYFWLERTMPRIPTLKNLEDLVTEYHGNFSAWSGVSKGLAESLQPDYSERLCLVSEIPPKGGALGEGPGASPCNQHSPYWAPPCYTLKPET
Assay: cell-based or functional assay
Express the result in % but write the number alone.

-- ask Tell me M07e cell proliferation activity (%) at 37 nM reported for A-D20A (Fc fusion, also called PD-1-IL-2v (D20A); not shown: IgG1 hinge (C220S) + Fc Knob chain (L234A, L235A, S354C, T366W, EU); D356/L358 or E356/M358 ver; IgG1 hinge (C220S) + Fc Hole chain (L234A, L235A, Y349C, T366S, L368A, Y407V; may have H435R, Y436F; EU)) chain (part 1 of 2): EVQLVESGGGLVQPGGSLRLSCAASGLTFSDYSMSWYRQAPGKGRELVAIISGSGVITHYVDSVKGRFTISRDNAKNTLYLQMRSLRAEDTAVYYCRAVSDWEDYWGQGTQVTVSS chain (part 2 of 2): GGGGSGGGGSGGGGSAPASSSTKKTQLQLEHLLLALQMILQGISNYKNPKLTRMLTAKFYMPKKATELKHLQCLEEELKPLEEVLQGAQSKNFHLRPRDLISNINVIVLELKGSETTFMCEYADETATIVEFLNRWITFAQSIISTLT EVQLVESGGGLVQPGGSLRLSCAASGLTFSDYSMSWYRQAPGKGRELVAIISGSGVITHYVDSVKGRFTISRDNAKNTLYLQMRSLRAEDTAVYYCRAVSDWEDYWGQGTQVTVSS
-- reply -3.7

-- ask Quickly give me recorded M07e cell proliferation activity (%) at 37 nM for PEGylated IL-2 mutant (PEG-IL-2v) (ligand, PEGylated (site not stated)) APASSSTKKTQLQLEHLLLDLQMILQGISNYKNPKLTRMLTAKFYMPKKATELKHLQCLEEELKPLEEVLQGAQSKNFHLRPRDLISNINVIVLELKGSETTFMCEYADETATIVEFLNRWITFAQSIISTLT
-- reply 68.2

-- ask Recall and state the measured M07e cell proliferation activity (%) at 37 nM for A-PC (Fc fusion, also called positive control molecule A-PC; PD-1-IL-2v; not shown: IgG1 hinge (C220S) + Fc Knob chain (L234A, L235A, S354C, T366W, EU); D356/L358 or E356/M358 ver; IgG1 hinge (C220S) + Fc Hole chain (L234A, L235A, Y349C, T366S, L368A, Y407V; may have H435R, Y436F; EU)) chain (part 1 of 2): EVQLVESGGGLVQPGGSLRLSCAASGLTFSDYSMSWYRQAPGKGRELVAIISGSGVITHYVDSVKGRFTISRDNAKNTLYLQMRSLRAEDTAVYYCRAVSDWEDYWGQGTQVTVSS chain (part 2 of 2): GGGGSGGGGSGGGGSAPASSSTKKTQLQLEHLLLDLQMILQGISNYKNPKLTRMLTAKFYMPKKATELKHLQCLEEELKPLEEVLQGAQSKNFHLRPRDLISNINVIVLELKGSETTFMCEYADETATIVEFLNRWITFAQSIISTLT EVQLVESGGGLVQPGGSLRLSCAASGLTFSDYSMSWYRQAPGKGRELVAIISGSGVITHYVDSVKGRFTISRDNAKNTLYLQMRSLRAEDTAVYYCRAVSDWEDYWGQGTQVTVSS .
-- reply 71.7
